- Tested on: Enterococcus faecium
- ASSAY COMMENT: Minimal inhibitory concentration was evaluated against VanA Fm […]
- Type: functional
Measured MIC, listed per entry for reference.
Answer with a number only, understood to be in µg/mL.

Solved cases (2 shown):
{"COMPOUND": "CCCCCCCCCCSSCCNC1(C)CC(OC2C(Oc3c4cc5cc3Oc3ccc(cc3Cl)[C@@H](O)[C@@H](NC(=O)[C@@H](CC(C)C)NC)C(=O)N[C@@H](CC(N)=O)C(=O)N[C@H]5C(=O)N[C@H]3C(=O)N[C@H](C(=O)N[C@H](C(=O)O)c5cc(O)cc(O)c5-c5cc3ccc5O)[C@H](O)c3ccc(c(Cl)c3)O4)OC(O)C(O)C2O)OC(C)C1O (stereo partly drawn)", "VAL": 3.1}
{"COMPOUND": "CCCCCCCCCSSCCN[C@@]1(C)C[C@H](O[C@@H]2[C@@H](Oc3c4cc5cc3Oc3ccc(cc3Cl)[C@@H](O)[C@@H](NC(=O)[C@@H](CC(C)C)NC)C(=O)N[C@@H](CC(N)=O)C(=O)N[C@H]5C(=O)N[C@H]3C(=O)N[C@H](C(=O)N[C@H](C(=O)O)c5cc(O)cc(O)c5-c5cc3ccc5O)[C@H](O)c3ccc(c(Cl)c3)O4)O[C@@H](CO)[C@H](O)[C@@H]2O)O[C@H](C)[C@H]1O", "VAL": 6.3}

# ---- query compound ----
Item under review: CCCCCCCCCSSCCCN[C@@]1(C)C[C@H](O[C@@H]2[C@@H](Oc3c4cc5cc3Oc3ccc(cc3Cl)[C@@H](O)[C@@H](NC(=O)[C@@H](CC(C)C)NC)C(=O)N[C@@H](CC(N)=O)C(=O)N[C@H]5C(=O)N[C@H]3C(=O)N[C@H](C(=O)N[C@H](C(=O)O)c5cc(O)cc(O)c5-c5cc3ccc5O)[C@H](O)c3ccc(c(Cl)c3)O4)O[C@@H](CO)[C@H](O)[C@@H]2O)O[C@H](C)[C@H]1O . Reported MIC?
4.1

====

- ASSAY COMMENT: Compound was evaluated for tissue distribution 24 hours after a 50 mg/kg dose was administered intravenously in urine
- Type: ADME, organism-based
- Design: dose 50 mg/kg, route intravenous
- CONDITION: rat, iv
READOUT TYPE: dose excreted at 24 h (%)
Report the figure in % without appending any unit label.

Known dose excreted at 24 h results, listed for orientation:
{"QUERY SMILES": "CCCCCCCCCCNCCN[C@@]1(C)C[C@H](O[C@@H]2[C@@H](Oc3c4cc5cc3Oc3ccc(cc3Cl)[C@@H](O)[C@@H](NC(=O)[C@@H](CC(C)C)NC)C(=O)N[C@@H](CC(N)=O)C(=O)N[C@H]5C(=O)N[C@H]3C(=O)N[C@H](C(=O)N[C@H](C(=O)O)c5cc(O)cc(O)c5-c5cc3ccc5O)[C@H](O)c3ccc(c(Cl)c3)O4)O[C@@H](CO)[C@H](O)[C@@H]2O)O[C@H](C)[C@H]1O", "MEASUREMENT UNITS": "%", "VAL": 16}
{"QUERY SMILES": "CCCCCCCCSSCCCN[C@@]1(C)C[C@H](O[C@@H]2[C@@H](Oc3c4cc5cc3Oc3ccc(cc3Cl)[C@@H](O)[C@@H](NC(=O)[C@@H](CC(C)C)NC)C(=O)N[C@@H](CC(N)=O)C(=O)N[C@H]5C(=O)N[C@H]3C(=O)N[C@H](C(=O)N[C@H](C(=O)O)c5cc(O)cc(O)c5-c5cc3ccc5O)[C@H](O)c3ccc(c(Cl)c3)O4)O[C@@H](CO)[C@H](O)[C@@H]2O)O[C@H](C)[C@H]1O", "MEASUREMENT UNITS": "%", "VAL": 1}

We now examine a further compound.
Looking for the measured dose excreted at 24 h of CCCCCCCCCCCCCN[C@@]1(C)C[C@H](O[C@@H]2[C@@H](Oc3c4cc5cc3Oc3ccc(cc3Cl)[C@@H](O)[C@@H](NC(=O)[C@@H](CC(C)C)NC)C(=O)N[C@@H](CC(N)=O)C(=O)N[C@H]5C(=O)N[C@H]3C(=O)N[C@H](C(=O)N[C@H](C(=O)O)c5cc(O)cc(O)c5-c5cc3ccc5O)[C@H](O)c3ccc(c(Cl)c3)O4)O[C@@H](CO)[C@H](O)[C@@H]2O)O[C@H](C)[C@H]1O , can you help?
0.4

====

- Test system: Rattus norvegicus
- ASSAY COMMENT: Compound was evaluated for percent dimer tissue distribution 24 hours after a 50 mg/kg dose was administered intravenously in urine
- Assay type: ADME, organism-based
- Set-up: dose 50 mg/kg, route intravenous
- CONDITION: in vivo, iv
READOUT TYPE: Dose

// returns reported Dose for input CCCCCCCCSSCCCN[C@@]1(C)C[C@H](O[C@@H]2[C@@H](Oc3c4cc5cc3Oc3ccc(cc3Cl)[C@@H](O)[C@@H](NC(=O)[C@@H](CC(C)C)NC)C(=O)N[C@@H](CC(N)=O)C(=O)N[C@H]5C(=O)N[C@H]3C(=O)N[C@H](C(=O)N[C@H](C(=O)O)c5cc(O)cc(O)c5-c5cc3ccc5O)[C@H](O)c3ccc(c(Cl)c3)O4)O[C@@H](CO)[C@H](O)[C@@H]2O)O[C@H](C)[C@H]1O
15%

====

- Test system: Enterococcus faecium
- ASSAY COMMENT: Minimal inhibitory concentration was evaluated against VanA Fm […]
- Assay type: functional
READOUT TYPE: MIC (µg/mL)
A number alone suffices; assume µg/mL.

{"QUERY SMILES": "CCCCCCCCSSCCN[C@@]1(C)C[C@H](O[C@@H]2[C@@H](Oc3c4cc5cc3Oc3ccc(cc3Cl)[C@@H](O)[C@@H](NC(=O)[C@@H](CC(C)C)NC)C(=O)N[C@@H](CC(N)=O)C(=O)N[C@H]5C(=O)N[C@H]3C(=O)N[C@H](C(=O)N[C@H](C(=O)O)c5cc(O)cc(O)c5-c5cc3ccc5O)[C@H](O)c3ccc(c(Cl)c3)O4)O[C@@H](CO)[C@H](O)[C@@H]2O)O[C@H](C)[C@H]1O", "MIC [µg/mL]": 6.3}
{"QUERY SMILES": "CCCCCCCCCCNCCN[C@@]1(C)C[C@H](O[C@@H]2[C@@H](Oc3c4cc5cc3Oc3ccc(cc3Cl)[C@@H](O)[C@@H](NC(=O)[C@@H](CC(C)C)NC)C(=O)N[C@@H](CC(N)=O)C(=O)N[C@H]5C(=O)N[C@H]3C(=O)N[C@H](C(=O)N[C@H](C(=O)O)c5cc(O)cc(O)c5-c5cc3ccc5O)[C@H](O)c3ccc(c(Cl)c3)O4)O[C@@H](CO)[C@H](O)[C@@H]2O)O[C@H](C)[C@H]1O", "MIC [µg/mL]": 4.1}
{"QUERY SMILES": "CCCCCCCCSSCCCN[C@@]1(C)C[C@H](O[C@@H]2[C@@H](Oc3c4cc5cc3Oc3ccc(cc3Cl)[C@@H](O)[C@@H](NC(=O)[C@@H](CC(C)C)NC)C(=O)N[C@@H](CC(N)=O)C(=O)N[C@H]5C(=O)N[C@H]3C(=O)N[C@H](C(=O)N[C@H](C(=O)O)c5cc(O)cc(O)c5-c5cc3ccc5O)[C@H](O)c3ccc(c(Cl)c3)O4)O[C@@H](CO)[C@H](O)[C@@H]2O)O[C@H](C)[C@H]1O", "MIC [µg/mL]": 4.7}

Next:
What value of measured MIC is listed for CCCCCCCCCCCCCN[C@@]1(C)C[C@H](O[C@@H]2[C@@H](Oc3c4cc5cc3Oc3ccc(cc3Cl)[C@@H](O)[C@@H](NC(=O)[C@@H](CC(C)C)NC)C(=O)N[C@@H](CC(N)=O)C(=O)N[C@H]5C(=O)N[C@H]3C(=O)N[C@H](C(=O)N[C@H](C(=O)O)c5cc(O)cc(O)c5-c5cc3ccc5O)[C@H](O)c3ccc(c(Cl)c3)O4)O[C@@H](CO)[C@H](O)[C@@H]2O)O[C@H](C)[C@H]1O ?
4.1
